For each entry below, report its IC50 value.
biological target: BCAT2 (Homo sapiens); assay: BCAT2 in vitro enzyme inhibition assay (resazurin/diaphorase-coupled fluorescence); assay type: biochemical; details: average where tested multiple times

These solved cases illustrate the format of a correct answer.
| compound | IC50 |
| --- | --- |
| CC(C)Cc1nc2cnc(-c3ccccn3)cc2n1[C@H]1C[C@@H](NC(=O)c2ncc(Cl)s2)CN(C)C1 [Example 262] | 100 to 500 nM |
| CO[C@@H]1C[C@@H](NC(=O)c2ncc(Cl)s2)C[C@@H](n2c(-c3ncccc3F)nc3cnc(-c4nc[nH]n4)cc32)C1 (single isomer, unassigned) [Example 443] | > 1000 nM |
| O=C(N[C@H]1CCC[C@@H](n2c(-c3ccccc3O)nc3cnc(-c4nc[nH]n4)cc32)C1)c1ncc(Cl)s1 [Example 340] | ≤ 100 nM |
| N#Cc1ccccc1-c1nc2cnc(-c3nc[nH]n3)cc2n1[C@@H]1CCC[C@H](NC(=O)c2ccc(Cl)s2)C1 [Example 356] | ≤ 100 nM |
| CC(C)Cc1nc2cnc(-c3ncon3)cc2n1[C@@H]1CCC[C@H](NC(=O)c2ncc(Cl)s2)C1 [Example 321] | ≤ 100 nM |

Record O=C(N[C@H]1CCC[C@@H](n2c(-c3ccccc3OC(F)F)nc3cnc(-c4nc[nH]n4)cc32)C1)c1ncc(Cl)s1 [Example 367] . Reported IC50: ≤ 100 nM

---

Could you please report measured pIC50 for the items listed next?
molecular target: BCAT2 (Homo sapiens, UniProt O15382); assay: BCAT2 in vitro cell inhibition using engineered A549 cells (KMV cell assay, 13C6-KMV by LC-MS/MS); type: cell-based; design: The result was an engineered A549 cell line that expressed endogenous BCAT2; endogenous in cells; host or cells: A549 cells with MUT and BCAT1 knocked out by CRISPR/CAS9; conditions: average where tested multiple times
Sequence (O15382 28-392): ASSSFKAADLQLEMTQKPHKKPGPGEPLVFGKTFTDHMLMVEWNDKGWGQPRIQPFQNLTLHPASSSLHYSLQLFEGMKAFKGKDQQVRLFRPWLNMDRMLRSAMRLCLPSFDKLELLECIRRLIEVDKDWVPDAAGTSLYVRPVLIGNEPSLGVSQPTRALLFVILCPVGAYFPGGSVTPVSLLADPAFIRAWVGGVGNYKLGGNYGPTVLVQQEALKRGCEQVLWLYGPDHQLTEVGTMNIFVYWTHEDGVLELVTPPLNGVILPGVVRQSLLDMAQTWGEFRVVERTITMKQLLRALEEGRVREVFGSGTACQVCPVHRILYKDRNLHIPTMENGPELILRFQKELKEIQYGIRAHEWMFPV
pIC50: −log10 of the molar value.

| compound | pIC50 |
| --- | --- |
| O=C(N[C@H]1CCC[C@@H](n2c(-c3ccccc3O)nc3cnc(-c4nc[nH]n4)cc32)C1)c1ncc(Cl)s1 | ≥ 7.00 |
| O=C(N[C@H]1CCC[C@@H](n2c(-c3ncccc3F)nc3cnc(-c4ccn[nH]4)cc32)C1)c1ccc(Cl)s1 | ≥ 7.00 |
| O=C(NC1COCC(n2c(-c3ccccc3F)nc3cnc(-n4nccn4)cc32)C1)c1ncc(C(F)F)s1 (single isomer, unassigned) [Example 142] | ≥ 7.00 |
| CC(C)Cc1nc2cnc(-c3ccn[nH]3)cc2n1[C@@H]1CCC[C@H](NC(=O)c2ncc(Cl)s2)[C@H]1O | 6.30 to 7.00 |
| CC(C)Cc1nc2cnc(-c3cccc(F)n3)cc2n1[C@@H]1C[C@@H](O)C[C@H](NC(=O)c2ncc(Cl)s2)C1 (stereo in doubt) | < 6.00 |
| CN1C[C@@H](NC(=O)c2ccc(Cl)s2)C[C@@H](n2c(-c3ccccc3F)nc3cnc(-c4nc[nH]n4)cc32)C1 | < 6.00 |
| CC(C)(F)Cc1nc2cnc(-c3ccccn3)cc2n1[C@@H]1CCC[C@H](NC(=O)c2ncc(Cl)s2)C1 | 6.30 to 7.00 |
| CC(C)Cc1nc2cnc(-n3ncc(CO)n3)cc2n1[C@@H]1CCC[C@H](NC(=O)c2ncc(Cl)s2)C1 | 6.00 to 6.30 |
| O=C(N[C@H]1CCC[C@@H](n2c(-c3ncccc3F)nc3cnc(-n4nccn4)cc32)C1)c1ccc(Cl)s1 | ≥ 7.00 |
| O=C(N[C@H]1CCC[C@@H](n2c(Nc3ccccc3)nc3cnc(-n4nccn4)cc32)C1)c1ncc(C(F)F)s1 | < 6.00 |

For each listed entry, give its pIC50.
1. CO[C@@H]1C[C@@H](NC(=O)c2ncc(Cl)s2)C[C@@H](n2c(CC(C)C)nc3cnc(-c4ccccn4)cc32)C1 (stereo in doubt)
2. O=C(N[C@H]1CCC[C@@H](n2c(-c3ccccc3F)nc3cnc(-n4nccn4)cc32)[C@@H]1O)c1ncc(Cl)s1 (single isomer, unassigned)
3. N#Cc1ccccc1-c1nc2cnc(-c3nc[nH]n3)cc2n1[C@@H]1CCC[C@H](NC(=O)c2ccc(Cl)s2)C1
4. N#Cc1ccc(F)c(-c2nc3cnc(-c4nc[nH]n4)cc3n2[C@@H]2CCC[C@H](NC(=O)c3ccc(Cl)s3)C2)c1
5. O=C(N[C@H]1CCC[C@@H](n2c(-c3c(O)cccc3F)nc3cnc(-c4nc[nH]n4)cc32)C1)c1ccc(Cl)s1
6. CC(C)Cc1nc2cnc(-c3ccccn3)cc2n1[C@@H]1CCC[C@H](NC(=O)c2ncc(Cl)s2)[C@H]1O
7. CO[C@H]1C[C@H](NC(=O)c2ncc(Cl)s2)C[C@H](n2c(-c3ccccc3F)nc3cnc(N4CCC[C@H]4CO)cc32)C1
8. O=C(N[C@H]1CCC[C@@H](n2c(-c3ccccc3F)nc3cnc(N4CCC(O)C4)cc32)C1)c1ncc(Cl)s1 (some centres unmarked)

1: 6.30 to 7.00; 2: ≥ 7.00; 3: ≥ 7.00; 4: 6.00 to 6.30; 5: ≥ 7.00; 6: ≥ 7.00; 7: ≥ 7.00; 8: < 6.00

Report pIC50 for every entry below.
1. O=C(N[C@H]1CCC[C@@H](n2c(-c3ncccc3F)nc3cnc(-n4cncn4)cc32)C1)c1ccc(Br)s1
2. CC(C)Cc1nc2cnc(-n3nccn3)cc2n1[C@@H]1C[C@@H](O)C[C@H](NC(=O)c2ccc(Cl)s2)C1 (single isomer, unassigned)
3. O=C(N[C@H]1CCC[C@@H](n2c(-c3ccccc3F)nc3cnc(-n4nccn4)cc32)C1)c1ncc(Cl)s1

1. ≥ 7.00
2. ≥ 7.00
3. ≥ 7.00
